# Tested on: KB-3-1
# assaySummary: Cytotoxic Profiling of Annotated Libraries Using Quantitative High-Throughput Screening (AID 1296008); further: potency means the concentration at half of the fitted maximal effect; nearly all actives have a fitted effect of over 60% in size
# conditions: Five cell lines viability, CellTiter-Glo ATP luminescence, 48-72 h
Inconclusive results are not listed. Active and inactive are the calls of the source. The call rests on the fitted dose curve; in most records, active means well fitted inhibition curve with a large enough effect; inconclusive means small, poorly fitted or top-dose-only effect; inactive means flat fitted curve, though single readings scatter.
assayReadout: Potency

structure	system	measValue
CC=C(C)C(=O)N[C@@H](c1ccccc1)[C@@H](O)C(=O)O[C@H]1C[C@@]2(O)[C@@H](OC(=O)c3ccccc3)[C@@H]3[C@]4(OC(C)=O)CO[C@@H]4C[C@H](O)[C@@]3(C)C(=O)[C@H](OC(C)=O)C(=C1C)C2(C)C	KB-3-1	1 nM (active)

Please examine the following record next.
Looking up `CC[C@@H]1[C@@H](C)O[C@@](O)([C@@H](C)[C@H](O)[C@H](C)[C@H]2OC(=O)C=CC=C[C@@H](C)[C@@H]([C@@H](C)[C@@H](O)[C@H](C)[C@@]3(O)C[C@H](O[C@H]4C[C@H](O)[C@H](O)[C@H](C)O4)[C@H](CC)[C@@H](C)O3)OC(=O)C=CC=C[C@@H]2C)C[C@H]1O[C@H]1C[C@H](O)[C@H](O)[C@H](C)O1` , I found its Potency recorded as 5900 nM (active)
